- TEST_TARGET: PCTAIRE1 (PCTK1/CDK16) (Homo sapiens)
- Construct: recombinant GST-fusion or His-tagged protein from human cDNA, expressed in Sf9 insect cells or E. coli; with CycY (cyclin Y)
- Sequence (Q00536 whole entry, the tested form may be a part): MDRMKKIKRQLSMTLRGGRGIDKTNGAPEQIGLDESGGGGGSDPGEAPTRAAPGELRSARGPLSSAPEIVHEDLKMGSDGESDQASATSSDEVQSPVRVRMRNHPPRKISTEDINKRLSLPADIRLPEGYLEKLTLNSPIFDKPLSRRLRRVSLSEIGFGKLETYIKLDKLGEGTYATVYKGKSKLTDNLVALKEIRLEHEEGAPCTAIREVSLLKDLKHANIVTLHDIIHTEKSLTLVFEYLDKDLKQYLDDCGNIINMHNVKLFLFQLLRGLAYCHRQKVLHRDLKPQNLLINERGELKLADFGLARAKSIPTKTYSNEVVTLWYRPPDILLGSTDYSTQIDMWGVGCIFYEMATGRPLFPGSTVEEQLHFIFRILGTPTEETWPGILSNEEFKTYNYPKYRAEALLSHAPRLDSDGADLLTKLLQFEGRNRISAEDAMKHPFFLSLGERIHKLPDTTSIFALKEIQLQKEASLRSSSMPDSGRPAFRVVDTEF
- Sequence (Q8ND76 2-341 partner): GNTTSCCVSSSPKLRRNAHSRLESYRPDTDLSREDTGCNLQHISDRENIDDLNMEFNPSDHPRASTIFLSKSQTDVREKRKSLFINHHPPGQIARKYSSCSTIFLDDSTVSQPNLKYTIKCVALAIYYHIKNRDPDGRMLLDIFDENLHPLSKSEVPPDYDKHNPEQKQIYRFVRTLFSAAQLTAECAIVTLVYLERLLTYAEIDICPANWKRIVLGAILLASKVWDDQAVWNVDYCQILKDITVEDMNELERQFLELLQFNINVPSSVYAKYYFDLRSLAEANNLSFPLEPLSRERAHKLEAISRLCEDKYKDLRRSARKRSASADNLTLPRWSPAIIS
- TEST_PROTOCOL: radiometric protein kinase assay ([…]PanQinase) with GSK3([…]-27) peptide substrate
OBSERVED_PROPERTY: pIC50
Here pIC50 is given on a logarithmic scale as minus log10 of the concentration in mol/L.

Lookup: Which pIC50 value is on record for O=C1Nc2ccccc2/C1=C1/Nc2ccccc2/C1=N\OCCC(O)CO (stereo not shown) [indirubin E804] ?
Found: 7.28
